species: Homo sapiens; assay: To identify inhibition of the IFN signalling (Jak-Stat) pathway via expression of an eGFP reporter gene under the control of an IFN-stimulated response element (ISRE) containing MxA promoter.; assay type: functional; parameters: scale not given: direction of the effect not stated beside the values; settings: 30 µM
reported property: Percent Effect (%)
Note: unit % is implicit; provide only the numeric part.

Lookup: Recorded Percent Effect of O=C(Cn1nc(-c2ccc(F)cc2)oc1=O)Nc1ccccc1 , please.
Found: 7.21

Lookup: Which measured Percent Effect value corresponds to CC(C)S(=O)(=O)NCC1CCCN(C(=O)c2ccc3c(c2)OCCO3)C1 (stereo unspecified) ?
Found: 5.65

Lookup: Returns the measured Percent Effect for the input compound. Input: CNS(=O)(=O)Cc1ccc(CNC(=O)c2ccc(C)[nH]c2=O)cc1
Found: -2.15

Lookup: What value of Percent Effect has been reported for the following compound? CCOCCn1c(=O)[nH]c2cc(C(=O)N(C)CCc3cn[nH]c3)ccc21
Found: 13

Lookup: Name the recorded Percent Effect for O=C(CN1CCCC1Cn1cccn1)NC1CCOCC1 (stereo unspecified) .
Found: -13.8

Lookup: Which Percent Effect is reported for this compound? CN(C)C(=O)[C@H]1C[C@@H]2CN(S(=O)(=O)Cc3ccccc3)C[C@H]1O2
Found: -3.98

---

target: Tyrosyl-tRNA synthetase, putative (Trypanosoma cruzi (strain CL Brener)) (UniProt Q4DSP6); assay: Trypanosoma cruzi tyrosyl tRNA synthetase (TcYRS) SOP; type: functional; parameters: scale not given: direction of the effect not stated beside the values; settings: 30 µM
Sequence (Q4DSP6 as listed by the source): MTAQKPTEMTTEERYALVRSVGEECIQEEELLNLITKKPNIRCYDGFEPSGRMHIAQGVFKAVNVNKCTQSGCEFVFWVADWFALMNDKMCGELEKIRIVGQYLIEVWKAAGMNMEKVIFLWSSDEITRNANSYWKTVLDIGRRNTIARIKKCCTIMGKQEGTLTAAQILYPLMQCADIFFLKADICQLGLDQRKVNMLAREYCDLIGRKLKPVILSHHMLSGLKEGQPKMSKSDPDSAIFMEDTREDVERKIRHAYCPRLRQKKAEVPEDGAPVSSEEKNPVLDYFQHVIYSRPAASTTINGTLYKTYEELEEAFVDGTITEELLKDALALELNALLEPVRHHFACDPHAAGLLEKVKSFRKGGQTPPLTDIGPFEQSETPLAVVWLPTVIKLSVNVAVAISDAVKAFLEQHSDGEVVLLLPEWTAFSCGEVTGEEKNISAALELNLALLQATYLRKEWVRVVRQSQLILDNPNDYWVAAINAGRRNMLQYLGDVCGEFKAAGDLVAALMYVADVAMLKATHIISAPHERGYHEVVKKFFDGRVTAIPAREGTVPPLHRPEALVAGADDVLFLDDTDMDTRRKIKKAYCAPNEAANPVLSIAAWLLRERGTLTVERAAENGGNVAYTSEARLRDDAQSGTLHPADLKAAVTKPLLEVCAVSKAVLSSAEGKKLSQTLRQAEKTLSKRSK
Please provide measured Percent Effect for the entries that follow.

Lookup: For c1cn(Cc2nnc(C3CCN(c4nccs4)CC3)n2C2CC2)cn1 , what is its reported Percent Effect?
Found: 8.64%

Lookup: # lookup: Percent Effect of CNc1nc(CNC(=O)Nc2ccccc2-c2noc(C)n2)cs1
Found: -4.88%

Lookup: Query (molecule): NC(=O)CSCCC(=O)N1CCCC1c1ccsc1 (stereo not drawn) ; field requested: Percent Effect
Found: 7.69%

Lookup: Please give the measured Percent Effect for this molecule: Cc1cc(=O)n(CC(=O)Nc2ccc(C(N)=O)cc2)nc1C
Found: 9.76%

Lookup: Value lookup for Percent Effect; key = Cc1nc(N2CCOCC2)nc2c1CN(C(=O)Cc1ccccn1)CC2
Found: -1.24%

Lookup: Give the measured Percent Effect of Cc1cc(C)n(CC2CCCCN2Cc2cscn2)n1 (stereo not drawn) .
Found: 11.8%

Lookup: Bench note: what Percent Effect did c1ccc(-c2nc(CN3CCCC(Cn4cncn4)C3)co2)cc1 (stereo not drawn) show?
Found: 10.1%

Lookup: I'd like to know its Percent Effect. The molecule in question is CN(C)C(=O)N1CCN(Cc2cnn(C)c2)CC2(CNC(=O)C2)C1 (stereo not drawn)
Found: 2.56%

Lookup: Fill in the blank: the reported Percent Effect of Cc1ccc(N2CCCN(C(=O)CC3CCCO3)CC2)nn1 (stereo not drawn) is ____.
Found: 18.5%

Lookup: Quick one: Percent Effect of Cc1cc(C)n(CC(C)CNC(=O)[C@@H](C)NC(=O)OC(C)(C)C)n1 (stereo partly drawn) ?
Found: 13%

Lookup: Using the record for Cc1nc(C2CCCN(C(=O)c3ccc(Cn4cccn4)o3)C2)no1 (stereo not drawn) , report its Percent Effect.
Found: 0%

Lookup: Give the measured Percent Effect of O=C(COCC1CC1)N1CCCC(n2cncn2)C1 (stereo not drawn) .
Found: 16.1%

Lookup: Name the reported Percent Effect value associated with the molecule Cc1ccccc1Cc1cnc(NC(=O)C2CNC(=O)N2)s1 (stereo not drawn)
Found: 15.2%

Lookup: Given the entry Fc1ccc2c(c1)C(NCc1nnc3n1CCCCC3)CCCO2 (stereo not drawn) , report its measured Percent Effect.
Found: 8.64%

Lookup: What value of Percent Effect has been reported for the following molecule? CCNC(=O)c1ccc2c(c1)nc1n2CCN(Cc2ccco2)C1
Found: 0%

Lookup: I would be grateful if you could share the reported Percent Effect for O=C(c1nc(-c2ccc3cc[nH]c3c2)no1)N1CCCC1 .
Found: -2.56%

Lookup: What does the record list as Percent Effect for c1ccc(OCC2CC3(CCN(c4ncccn4)CC3)CO2)nc1 (stereo not drawn) ?
Found: -2.56%

Lookup: Requested read-out: Percent Effect. Entry: O=S(=O)(NCc1ccccc1Cn1cncn1)C1CCCC1
Found: 12.7%

Lookup: Percent Effect lookup needed for CC(=O)NCC(=O)N1Cc2nccn2CC(CN2CCCC2)C1 (stereo not drawn) , thanks.
Found: 10.3%

Lookup: Could you share which Percent Effect value was measured for Cn1cc(C2CC(=O)NC23CCN(c2ncc(F)cn2)CC3)cn1 (stereo not drawn) ?
Found: 17.5%

Lookup: What measured Percent Effect goes with N#Cc1ccc(CNC(=O)NC2CCN(CC(F)F)CC2)cc1 ?
Found: 16.1%

Lookup: Can you share its Percent Effect? I mean this molecule: Cc1ccc(CC2CCCN2CC(=O)NCc2ccccn2)cc1 (stereo not drawn)
Found: 13%

Lookup: I'd like to know its Percent Effect. The molecule in question is O=C(NCc1ccccn1)NC1CCOc2ccccc21 (stereo not drawn)
Found: 28.1%

Lookup: Consider the molecule Cc1cccc(C(=O)NCCCN2CCN(c3ccccc3)CC2)c1 and give its measured Percent Effect.
Found: 8.97%

Lookup: Quick one: Percent Effect for CCc1noc(C)c1C(=O)N(C)Cc1ncc(C)c(OC)c1C ?
Found: 18.8%

Lookup: Which Percent Effect value is on record for Cc1nccc(CN2CCC(c3nnsc3S(C)(=O)=O)CC2)n1 ?
Found: 11.7%

Lookup: I'd like to know its Percent Effect. The molecule in question is O=C(CSc1ccccc1Cl)NS(=O)(=O)c1ccc2c(c1)OCCO2
Found: -12.2%

Lookup: Request the reported Percent Effect associated with Cc1cc(C)nc(N2CCN(C(=O)c3cc(Cl)c[nH]3)CC2)n1
Found: 16.1%

Lookup: Looking for the measured Percent Effect of Cc1cc(C)n(C2CCCN(C(=O)C3=NN(C)C(=O)CC3)C2)n1 (stereo not drawn) , can you help?
Found: 25.9%

Lookup: Name the recorded Percent Effect for CCOCCn1nc(C)cc1C(=O)N1CCOCC(CO)C1 (stereo not drawn) .
Found: 12.2%

Lookup: Request the reported Percent Effect associated with NC(=O)CCN1CCC(C(=O)c2cc(F)ccc2F)CC1
Found: 2.6%

Lookup: GET /values?readout=Percent Effect&item= COc1ccc(S(=O)(=O)N2CCCC3(CCCN3S(C)(=O)=O)C2)cc1 (stereo not drawn)
Found: 8.64%

Lookup: State the recorded Percent Effect for this entry: Fc1ccc(CN2CCO[C@H]3[C@H](OCCN4CCCC4)CC[C@@H]32)cc1
Found: 12.5%

Lookup: Need Percent Effect of Cc1ccc(C2CSCCN2C(=O)c2ccsc2)o1 (stereo not drawn) , thanks.
Found: 6.17%

Lookup: May I ask what Percent Effect has been recorded for Cn1cc(C[C@H]2[C@H](O)CCN2CC2CC2)cn1 ?
Found: 5.13%

Lookup: Consider the molecule shown here: O=C(CO[C@@H]1CC[C@H]2[C@H]1OCCN2CC1CCOCC1)N1CCCC1 What is its recorded Percent Effect?
Found: 8.54%

Lookup: Field request: Percent Effect | item: Cc1cccc(N2Cc3nc(=O)[nH]n3C2=O)c1
Found: 5.13%

Lookup: // returns reported Percent Effect for input Cc1nc(COc2cccc(C#N)c2)no1
Found: 25.9%

Lookup: Request the reported Percent Effect associated with CNS(=O)(=O)c1ccc(C(=O)NCCNc2ncccn2)cc1
Found: 23.5%

Lookup: Looking for the measured Percent Effect of Cc1scc(C(=O)N2CCC3(CC(=O)NC3=O)C2)c1-c1ccccc1 (stereo not drawn) , can you help?
Found: 9.76%

Lookup: What does the data say about its Percent Effect? Entry: Cn1cc(CN2CC[C@@H]3O[C@H](C(=O)N4CCOCC4)C[C@@H]32)cn1
Found: -3.66%

Lookup: Find the recorded Percent Effect belonging to O=S(=O)(Nc1cnn(C2CCOCC2)c1)c1c(F)cccc1F and report it.
Found: 1.28%

Lookup: May I ask what Percent Effect has been recorded for Cc1ccc(CN(Cc2ccccn2)C2CC(C)(C)NC(C)(C)C2)s1 ?
Found: 3.9%

Lookup: Look up Percent Effect for this molecule: CN(CCn1nc2ccccn2c1=O)CC(=O)N1CCCC1
Found: 2.6%

Lookup: // Percent Effect lookup, key: COc1ccc(C2OC(COc3ccccc3Br)=NN2C(C)=O)cc1 (stereo not drawn)
Found: 1.28%

Lookup: Form field: reported Percent Effect of CNC(=O)CCCNCc1c(C(C)C)nn(C)c1N(C)C
Found: -1.24%

Lookup: I have this molecule here, NC(=O)C1CCN(Cc2cccc(NC(=O)c3ccsc3)c2)CC1 , and I need its recorded Percent Effect.
Found: 13.6%

Lookup: Endpoint output: Percent Effect of CC(C)c1nc(C2CCCN2Cc2ccno2)no1 (stereo not drawn) . Value?
Found: -2.44%
